A collection of molecules and their measured half-life
Assay: Half life in rat at 5 umol/kg, iv and 30 umol/kg, po
Format: ADME, organism-based
Settings: in vivo
Report as a plain number; the unit h is understood.

Smiles Input	half-life / h
O=C(CN1CCCC(c2ccccc2)(c2ccccc2)C1=O)N1CCN(Cc2cccc(C(F)(F)F)c2)CC1	2.7

Find the recorded half-life belonging to O=C(CN1CCCC(c2ccccc2)(c2ccccc2)C1=O)N1CCC(c2ccccc2)(c2ccccc2)CC1 and report it.
6.3

---

Listed here: items and their measured bioavailability.
Test: Oral bioavailability in rat at 3 umol/kg
Type: ADME, organism-based
Conditions: in vivo
API: value field is a number in %; no unit string.

Smiles Input	Value Unit	bioavailability
O=C(CN1CCCC(c2ccccc2)(c2ccccc2)C1=O)N1CCN(C(c2ccccc2)c2ccccc2)CC1	%	16.6
O=C(CN1CCC(c2ccccc2)(c2ccccc2)C1=O)N1CCN(C(c2ccccc2)c2ccccc2)CC1	%	16.4

Reported bioavailability, compound O=C(CN1CCC(c2ccc(F)cc2)(c2ccc(F)cc2)C1=O)N1CCN(C(c2ccccc2)c2ccccc2)CC1 : ____
20.3

---

Assay: Plasma clearance in rat at 3 umol/kg, po
Assay type: ADME, organism-based
Each entry below carries its reported CL/F.

Consider the reported CL/F for these compounds:
Smiles Input	Property Measured	Val
O=C(CN1CCC(c2ccc(F)cc2)(c2ccc(F)cc2)C1=O)N1CCN(C(c2ccccc2)c2ccccc2)CC1	CL/F	2.2 L/h/kg
O=C(CN1CCC(c2ccccc2)(c2ccccc2)C1=O)N1CCN(C(c2ccccc2)c2ccccc2)CC1	CL/F	1.6 L/h/kg

Please examine the following record next.
Need CL/F of O=C(CN1CCCC(c2ccccc2)(c2ccccc2)C1=O)N1CCN(C(c2ccccc2)c2ccccc2)CC1 , thanks.
1.5 L/h/kg

---

Test: Metabolic stability in rat liver microsomes assessed as compound remaining after 30 mins
Type: ADME, Microsome
Details: read-out: Stability
Property Measured: remaining at 0.5 h

# count of solved cases: 3
Smiles Input	remaining at 0.5 h
O=C(CN1CCC(c2ccccc2)(c2ccccc2)C1=O)N1CCN(Cc2cccc(C(F)(F)F)c2)CC1	0.1%
O=C(CN1CCCC(c2ccccc2)(c2ccccc2)C1=O)N1CCN(Cc2cccc(C(F)(F)F)c2)CC1	1.2%
O=C(CN1CCCC(c2ccccc2)(c2ccccc2)C1=O)N1CCC(NC(c2ccccc2)c2ccccc2)CC1	< 0.1%

Find the recorded remaining at 0.5 h belonging to O=C(CN1CCC(c2ccc(F)cc2)(c2ccc(F)cc2)C1=O)N1CCN(C(c2ccccc2)c2ccccc2)CC1 and report it.
2%

Fill blank: measured remaining at 0.5 h of the compound O=C(CN1CCC(c2ccccc2)(c2ccccc2)C1=O)N1CCN(C(c2ccccc2)c2ccccc2)CC1 is ____.
0.4%

Entry O=C(CN1CCCC(c2ccccc2)(c2ccccc2)C1=O)N1CCN(C(c2ccccc2)c2ccccc2)CC1 has what remaining at 0.5 h?
0.1%

---

Assay: Half life in rat at 3 umol/kg, po
Type: ADME, organism-based
Settings: in vivo
Property Measured: half-life (min)
// note: answer is a bare numeric in min

Smiles Input	half-life / min
O=C(CN1CCC(c2ccc(F)cc2)(c2ccc(F)cc2)C1=O)N1CCN(C(c2ccccc2)c2ccccc2)CC1	432

Given the compound O=C(CN1CCCC(c2ccccc2)(c2ccccc2)C1=O)N1CCN(C(c2ccccc2)c2ccccc2)CC1 , what is its reported half-life?
312

What value of half-life has been reported for the following compound? O=C(CN1CCC(c2ccccc2)(c2ccccc2)C1=O)N1CCN(C(c2ccccc2)c2ccccc2)CC1
336

Numbers sourced from ChEMBL document CHEMBL1949568.
